molecular target: ATP-binding cassette transporter A1 (ABCA1) (UniProt P41233 1-2261, limits assumed); assay: cell-based or functional assay
Sequence (P41233 whole entry): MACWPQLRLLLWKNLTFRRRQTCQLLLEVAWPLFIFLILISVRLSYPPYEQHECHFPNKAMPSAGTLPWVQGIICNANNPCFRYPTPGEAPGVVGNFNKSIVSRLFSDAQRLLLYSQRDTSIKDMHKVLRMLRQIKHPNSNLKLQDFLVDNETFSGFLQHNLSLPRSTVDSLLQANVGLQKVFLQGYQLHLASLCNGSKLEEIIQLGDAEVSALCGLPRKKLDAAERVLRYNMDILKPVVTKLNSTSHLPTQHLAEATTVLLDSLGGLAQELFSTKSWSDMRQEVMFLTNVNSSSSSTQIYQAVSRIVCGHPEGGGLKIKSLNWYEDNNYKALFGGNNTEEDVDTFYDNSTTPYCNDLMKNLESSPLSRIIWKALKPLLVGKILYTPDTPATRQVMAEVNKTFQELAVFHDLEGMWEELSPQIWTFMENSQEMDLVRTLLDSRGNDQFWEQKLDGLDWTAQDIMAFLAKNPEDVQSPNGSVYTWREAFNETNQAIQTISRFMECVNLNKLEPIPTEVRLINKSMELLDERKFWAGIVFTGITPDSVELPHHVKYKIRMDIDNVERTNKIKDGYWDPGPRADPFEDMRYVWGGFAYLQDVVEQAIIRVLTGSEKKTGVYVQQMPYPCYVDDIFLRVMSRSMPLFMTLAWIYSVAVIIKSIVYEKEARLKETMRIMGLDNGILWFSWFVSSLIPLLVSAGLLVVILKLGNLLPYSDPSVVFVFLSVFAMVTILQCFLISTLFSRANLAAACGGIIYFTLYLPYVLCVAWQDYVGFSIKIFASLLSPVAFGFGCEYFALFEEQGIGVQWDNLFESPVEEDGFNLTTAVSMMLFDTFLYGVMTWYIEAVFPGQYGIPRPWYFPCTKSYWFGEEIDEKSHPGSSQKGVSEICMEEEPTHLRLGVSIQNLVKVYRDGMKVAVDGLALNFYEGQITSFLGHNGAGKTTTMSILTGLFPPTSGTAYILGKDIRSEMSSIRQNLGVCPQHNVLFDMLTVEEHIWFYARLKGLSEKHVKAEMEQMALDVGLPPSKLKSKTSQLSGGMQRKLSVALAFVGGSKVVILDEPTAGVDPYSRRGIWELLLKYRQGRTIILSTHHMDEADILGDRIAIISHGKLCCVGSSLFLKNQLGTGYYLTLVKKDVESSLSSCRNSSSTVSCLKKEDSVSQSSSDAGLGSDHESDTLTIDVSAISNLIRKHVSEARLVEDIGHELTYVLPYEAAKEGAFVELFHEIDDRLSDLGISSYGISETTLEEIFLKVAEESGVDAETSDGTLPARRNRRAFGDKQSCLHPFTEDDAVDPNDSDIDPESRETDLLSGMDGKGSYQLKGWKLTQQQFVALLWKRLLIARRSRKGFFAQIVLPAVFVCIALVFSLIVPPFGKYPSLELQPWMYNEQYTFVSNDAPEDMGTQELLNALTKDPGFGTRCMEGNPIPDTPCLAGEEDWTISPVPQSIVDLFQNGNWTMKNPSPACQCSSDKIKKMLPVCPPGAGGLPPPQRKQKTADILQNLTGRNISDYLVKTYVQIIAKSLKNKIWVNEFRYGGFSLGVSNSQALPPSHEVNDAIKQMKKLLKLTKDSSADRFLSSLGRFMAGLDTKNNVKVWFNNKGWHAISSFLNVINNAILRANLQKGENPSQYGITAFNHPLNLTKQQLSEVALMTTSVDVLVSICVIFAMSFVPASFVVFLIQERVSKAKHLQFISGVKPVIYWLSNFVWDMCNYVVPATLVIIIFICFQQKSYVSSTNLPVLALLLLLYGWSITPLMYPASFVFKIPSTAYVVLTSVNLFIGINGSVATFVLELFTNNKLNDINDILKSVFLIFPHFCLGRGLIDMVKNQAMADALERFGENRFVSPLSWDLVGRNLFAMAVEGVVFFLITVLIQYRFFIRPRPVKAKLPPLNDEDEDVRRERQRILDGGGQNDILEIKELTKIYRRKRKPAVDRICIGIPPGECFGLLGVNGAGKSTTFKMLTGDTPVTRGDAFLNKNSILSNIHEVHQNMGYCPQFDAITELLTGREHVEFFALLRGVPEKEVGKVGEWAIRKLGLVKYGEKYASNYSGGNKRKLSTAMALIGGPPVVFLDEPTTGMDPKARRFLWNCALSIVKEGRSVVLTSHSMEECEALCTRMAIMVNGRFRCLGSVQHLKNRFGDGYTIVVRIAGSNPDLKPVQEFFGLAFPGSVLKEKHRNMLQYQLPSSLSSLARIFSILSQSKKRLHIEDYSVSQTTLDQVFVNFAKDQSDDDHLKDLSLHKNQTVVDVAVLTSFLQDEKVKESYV
fulfilled means recorded % cholesterol efflux/8 hours, No cAMP is 2% or above; not fulfilled means it is below 2%.

- binder: "ELRERLEAWFELFREFLERF [N1154-1]"
  category: "not fulfilled"
- binder: "DLRDKLDAWFDLFRDFLDRF [N1154-3]"
  category: "not fulfilled"
- binder: "DLRDRLDAWFDLFRDFLDRF [N1154-5]"
  category: "fulfilled"
- binder: "ELRDRLEAWFDLFREFLERF [N1154-4]"
  category: "fulfilled"
- binder: "ELRDKLEAWFDLFREFLERF [N1154-2]"
  category: "not fulfilled"
